tested on: Symmetric Di-methyl Arginine (SDMA) signal (PRMT5 inhibition) in HCT116 MTAP-deleted cells; assay: Symmetric di-methyl arginine image-based high content screen assay (SDMA assay), HCT116 MTAP-deleted; assay type: cell-based; conditions: Homo sapiens, HCT-116, HCT116 MTAP-deleted, class symbols
pEC50: −log10 of the molar value.
quantity-name: pEC50

INSERT INTO results (compound, system_under_test, data_value) VALUES
  ('Nc1nc2cc(Br)c(C(=O)N3CCC[C@@H]4Oc5cc(C(F)(F)F)ccc5[C@@H]43)cc2n2cncc12', 'Symmetric Di-methyl Arginine (SDMA) signal (PRMT5 inhibition) in HCT116 MTAP-deleted cells', '≥ 9.00'),
  ('Cc1cc2nc(N)c3cncn3c2cc1C(=O)N(C)[C@@H]1COc2cc(C(F)(F)F)ccc21', 'Symmetric Di-methyl Arginine (SDMA) signal (PRMT5 inhibition) in HCT116 MTAP-deleted cells', '≥ 9.00'),
  ('Nc1nc2ccc(C(=O)N(Cc3ccc(C(F)(F)F)cn3)N3CCCC3=O)cc2n2cncc12', 'Symmetric Di-methyl Arginine (SDMA) signal (PRMT5 inhibition) in HCT116 MTAP-deleted cells', '8.30 to 9.00'),
  ('C[C@@H]1CN(C(=O)c2cc3c(cc2F)nc(N)c2cncn23)[C@H]2c3ccc(Br)c(F)c3C[C@H]2O1 (single isomer, unassigned)', 'Symmetric Di-methyl Arginine (SDMA) signal (PRMT5 inhibition) in HCT116 MTAP-deleted cells', '8.30 to 9.00'),
  ('Nc1nc2cc(F)c(C(=O)N3CCCC4OCc5nc(C(F)(F)F)ccc5[C@@H]43)cc2n2cncc12 (mixture of isomers)', 'Symmetric Di-methyl Arginine (SDMA) signal (PRMT5 inhibition) in HCT116 MTAP-deleted cells', '8.30 to 9.00'),
  ('Cc1cc2nc(N)c3cncn3c2cc1C(=O)N1CCC[C@@H]2Oc3cc(C(F)(F)F)ccc3[C@@H]21', 'Symmetric Di-methyl Arginine (SDMA) signal (PRMT5 inhibition) in HCT116 MTAP-deleted cells', '≥ 9.00');

###

Form field: CC50 (one value per entry).
tested on: HCT116 MTAP-deleted cell lines; test: Cell viability assay (CellTiter-Glo, 7 days), HCT116 MTAP-deleted; assay type: cell-based; conditions: Homo sapiens, HCT-116; cell viability, HCT116 MTAP-deleted; class symbols; read-out: CC50
quantity-name: CC50

INSERT INTO results (molecule, system_under_test, data_value) VALUES
  ('Nc1nc2ccc(C(=O)N3CCO[C@@H]4Cc5cc(Br)ccc5[C@@H]43)cc2n2cncc12 (racemic) [Ff-37]', 'HCT116 MTAP-deleted cell lines', '100 to 1000 nM'),
  ('Nc1nc2cc(F)c(C(=O)N3CCC[C@@H]4Oc5cc(OC(F)F)c(F)cc5[C@@H]43)cc2n2cncc12 (racemic) [Ff-157]', 'HCT116 MTAP-deleted cell lines', '< 100 nM'),
  ('C[C@H]1CN(C(=O)c2cc3c(cn2)nc(N)c2cncn23)[C@H]2c3cc(F)c(OC(F)(F)F)cc3C[C@H]2O1 (single isomer, unassigned) [Ff-196]', 'HCT116 MTAP-deleted cell lines', '< 100 nM'),
  ('Nc1nc2cc(F)c(C(=O)N3CCCC4OCc5nc(C(F)(F)F)ccc5[C@@H]43)cc2n2cncc12 (mixture of isomers) [Ff-319]', 'HCT116 MTAP-deleted cell lines', '< 100 nM'),
  ('Nc1nc2ccc(C(=O)N(Cc3ccc(C(F)(F)F)cn3)C34CC(C3)C4)cc2n2cncc12 [Fe-1]', 'HCT116 MTAP-deleted cell lines', '< 100 nM'),
  ('C[C@@H]1CCN(C(=O)c2cc3c(cc2F)nc(N)c2cncn23)C(c2ccc(C(F)(F)F)cn2)C1 (stereo partly shown) [Ff-224]', 'HCT116 MTAP-deleted cell lines', '100 to 1000 nM'),
  ('Nc1nc2ccc(C(=O)N3CCO[C@@H]4Cc5cc(C(F)(F)F)ccc5[C@@H]43)cc2n2cncc12 (racemic) [Ff-33]', 'HCT116 MTAP-deleted cell lines', '100 to 1000 nM');

###

system: Symmetric Di-methyl Arginine (SDMA) signal (PRMT5 inhibition) in HCT116 MTAP-deleted cells; test: Symmetric di-methyl arginine image-based high content screen assay (SDMA assay), HCT116 MTAP-deleted; type: cell-based; conditions: Homo sapiens, HCT-116, HCT116 MTAP-deleted, class symbols
pEC50: −log10 of the molar value.
quantity-name: pEC50

INSERT INTO results (molecule, data_value) VALUES
  ('Cc1ncn2c(N)nc3ccc(C(=O)N(Cc4ccc(C(F)(F)F)cn4)[C@H](C)c4ncccn4)cc3c12 [Fg-2]', '8.30 to 9.00'),
  ('Nc1nc2cc(F)c(C(=O)N(Cc3ccc(Cl)cc3F)C34CC(C3)C4)cc2n2cncc12 [Ff-6]', '< 8.30'),
  ('C[C@H]1C[C@@H]2Oc3cc(C(F)(F)F)ccc3[C@@H]2N(C(=O)c2cc3c(cn2)nc(N)c2cncn23)C1 (single isomer, unassigned) [Ff-399]', '≥ 9.00'),
  ('Cc1ncc2c(N)nc3ccc(C(=O)N4CCC5(CC4)CC(=O)c4ccccc4O5)cc3n12 [Ff-60]', '< 8.30'),
  ('C[C@@H]1C[C@@H]2Cc3nc(C(F)(F)F)ccc3[C@@H]2N(C(=O)c2cc3c(cc2F)nc(N)c2cncn23)C1 (racemic) [Ff-321]', '8.30 to 9.00'),
  ('CN(Cc1ccc(Cl)cc1C#N)C(=O)c1cc2c(cc1F)nc(N)c1cncn12 [Ff-32]', '8.30 to 9.00'),
  ('CCN(C(=O)c1ccc2nc(N)c3c(C)ncn3c2c1)[C@@H]1COc2cc(C(F)(F)F)ccc21 [Fg-6]', '8.30 to 9.00'),
  ('Nc1nc2cc(F)c(C(=O)N3CCO[C@@H]4Cc5cc(Br)ccc5[C@@H]43)cc2n2cncc12 (racemic) [Ff-28]', '8.30 to 9.00'),
  ('Nc1nc2cnc(C(=O)N3CCC4(CC4)[C@@H]4Oc5cc(OC(F)(F)F)ccc5[C@@H]43)cc2n2cncc12 [Ff-618]', '8.30 to 9.00'),
  ('Cc1ncn2c1c(N)nc1cnc(C(=O)N(C)[C@@H]3COc4cc(C(F)(F)F)ccc43)cc12 [Ff-502]', '8.30 to 9.00'),
  ('Cc1ncn2c1c(N)nc1ccc(C(=O)N(C)C3CCc4nc(C(F)(F)F)ccc43)cc12 (stereo not drawn) [Fg-12]', '≥ 9.00'),
  ('CN(C(=O)C1CC1)N(Cc1ccc(C(F)(F)F)cc1F)C(=O)c1cc2c(cc1F)nc(N)c1cncn12 [Fb-3]', '≥ 9.00'),
  ('C[C@H]1CN(C(=O)c2cc3c(cc2F)nc(N)c2cncn23)[C@H]2c3ccc(C(F)(F)C(F)(F)F)cc3C[C@H]2O1 [Fg-38]', '8.30 to 9.00'),
  ('Cc1ncc2c(N)nc3ccc(C(=O)N(C)[C@@H]4COc5nc(C(F)(F)F)ccc54)cc3n12 [Ff-21]', '8.30 to 9.00'),
  ('Cn1cc(N(Cc2ccc(C(F)(F)F)cc2F)C(=O)c2ccc3nc(N)c4cncn4c3c2)cn1 [Ff-278]', '8.30 to 9.00');

###

test system: HCT116 MTAP-deleted cell lines; assay: Cell viability assay (CellTiter-Glo, 7 days), HCT116 MTAP-deleted; format: cell-based; settings: Homo sapiens, HCT-116; cell viability, HCT116 MTAP-deleted; class symbols; read-out: CC50
quantity-name: CC50

INSERT INTO results (compound, system_under_test, quantity_name, data_value) VALUES
  ('Cc1ncc2c(N)nc3cc(F)c(C(=O)N4CCC[C@@H]5Oc6cc(C(F)(F)F)ccc6[C@@H]54)cc3n12 (racemic)', 'HCT116 MTAP-deleted cell lines', 'CC50', '< 100 nM'),
  ('CN(Cc1ccc(F)cc1Cl)C(=O)c1ccc2nc(N)c3cncn3c2c1', 'HCT116 MTAP-deleted cell lines', 'CC50', '> 1000 nM'),
  ('C[C@@H]1OCCN(C(=O)c2cc3c(cc2F)nc(N)c2cncn23)[C@H]1c1ccc(C(F)(F)F)cn1', 'HCT116 MTAP-deleted cell lines', 'CC50', '< 100 nM'),
  ('Nc1nc2cc(F)c(C(=O)N3CCC[C@@H]4OCc5cc(-c6cnn(C7CC7)c6)ccc5[C@@H]43)cc2n2cncc12 (racemic)', 'HCT116 MTAP-deleted cell lines', 'CC50', '< 100 nM'),
  ('Nc1nc2cc(F)c(C(=O)N3CCC[C@@H]4Oc5cc(F)c(F)cc5[C@@H]43)cc2n2cncc12 (racemic)', 'HCT116 MTAP-deleted cell lines', 'CC50', '100 to 1000 nM'),
  ('CN(C(=O)c1cc2c(cc1F)nc(N)c1cncn12)[C@@H]1COCc2cc(-c3cnn(C(F)(F)F)c3)ccc21', 'HCT116 MTAP-deleted cell lines', 'CC50', '< 100 nM'),
  ('Nc1nc2cc(F)c(C(=O)N3CCC[C@@H]4Oc5c(ccc(F)c5F)[C@@H]43)cc2n2cncc12 (racemic)', 'HCT116 MTAP-deleted cell lines', 'CC50', '100 to 1000 nM'),
  ('CN(C(=O)c1ccc2nc(N)c3cncn3c2c1)[C@@H]1COc2cc(C(F)(F)F)ccc21', 'HCT116 MTAP-deleted cell lines', 'CC50', '< 100 nM'),
  ('C[C@H]1CN(C(=O)c2cc3c(cc2F)nc(N)c2cncn23)[C@H]2c3ccc(OC(F)(F)F)cc3C[C@H]2O1 (single isomer, unassigned)', 'HCT116 MTAP-deleted cell lines', 'CC50', '< 100 nM'),
  ('Cc1ncc2c(N)nc3ccc(C(=O)N4CCC5(CC4)CC(=O)c4ccccc4O5)cc3n12', 'HCT116 MTAP-deleted cell lines', 'CC50', '100 to 1000 nM'),
  ('C[C@@H]1CN(C(=O)c2cc3c(cc2F)nc(N)c2cncn23)[C@H]2c3ccc(C(F)F)c(F)c3C[C@H]2O1', 'HCT116 MTAP-deleted cell lines', 'CC50', '< 100 nM'),
  ('Nc1nc2ccc(C(=O)N(Cc3ccc(C(F)(F)F)cn3)C34COC(C3)C4)cc2n2cncc12', 'HCT116 MTAP-deleted cell lines', 'CC50', '100 to 1000 nM'),
  ('Cc1ncc2c(N)nc3ccc(C(=O)N(Cc4ccc(C(F)(F)F)cc4F)N(C)C(=O)C4CC4)cc3n12', 'HCT116 MTAP-deleted cell lines', 'CC50', '100 to 1000 nM'),
  ('CC(C)N(Cc1ccc(-c2cnn(C(F)(F)F)c2)cc1F)C(=O)c1ccc2nc(N)c3cncn3c2c1', 'HCT116 MTAP-deleted cell lines', 'CC50', '< 100 nM'),
  ('CN(C(=O)c1cc2c(cc1F)nc(N)c1cncn12)[C@H]1c2ccc(C(F)(F)F)cc2[C@@H]2C[C@@H]21', 'HCT116 MTAP-deleted cell lines', 'CC50', '100 to 1000 nM'),
  ('CC(=O)N(C)N(Cc1nc2cc(Cl)ccc2s1)C(=O)c1ccc2nc(N)c3cncn3c2c1', 'HCT116 MTAP-deleted cell lines', 'CC50', '100 to 1000 nM'),
  ('CO[C@H]1COCC[C@H]1N(Cc1ccc(C(F)(F)F)cc1F)C(=O)c1cc2c(cc1F)nc(N)c1cncn12', 'HCT116 MTAP-deleted cell lines', 'CC50', '< 100 nM'),
  ('Cn1cc(N(Cc2ccc(-c3cnn(C(F)(F)F)c3)cc2F)C(=O)c2cc3c(cc2F)nc(N)c2cncn23)cn1', 'HCT116 MTAP-deleted cell lines', 'CC50', '< 100 nM'),
  ('COc1cc(C(F)(F)F)ccc1C1CCCCN1C(=O)c1cc2c(cc1F)nc(N)c1cncn12 (centres unmarked)', 'HCT116 MTAP-deleted cell lines', 'CC50', '100 to 1000 nM'),
  ('CC(=O)N(C)N(Cc1ccc(Cl)cc1C#N)C(=O)c1ccc2nc(N)c3c(C)ncn3c2c1', 'HCT116 MTAP-deleted cell lines', 'CC50', '< 100 nM'),
  ('CN(C(=O)c1cc2c(cc1F)nc(N)c1cncn12)[C@@H]1COc2cc(-c3cnn(C(F)F)c3)ccc21', 'HCT116 MTAP-deleted cell lines', 'CC50', '< 100 nM'),
  ('C[C@H]1CN(C(=O)c2cc3c(cc2F)nc(N)c2cncn23)[C@H]2c3ccc(-c4cnn(C(F)F)c4)cc3C[C@H]2O1', 'HCT116 MTAP-deleted cell lines', 'CC50', '< 100 nM'),
  ('Nc1nc2cc(Cl)c(C(=O)N3CCO[C@@H]4Cc5cc(C(F)(F)F)ccc5[C@@H]43)cc2n2cncc12 (racemic)', 'HCT116 MTAP-deleted cell lines', 'CC50', '< 100 nM'),
  ('Cn1ccc(N(Cc2ccc(C(F)(F)F)cn2)C(=O)c2cc3c(cc2F)nc(N)c2cncn23)n1', 'HCT116 MTAP-deleted cell lines', 'CC50', '< 100 nM'),
  ('Nc1nc2cc(F)c(C(=O)N(Cc3ccc(C(F)(F)F)cc3F)c3cnn(C(F)F)c3)cc2n2cncc12', 'HCT116 MTAP-deleted cell lines', 'CC50', '< 100 nM'),
  ('Nc1nc2cc(F)c(C(=O)N(Cc3ccc(Cl)cc3F)C34CC(C3)C4)cc2n2cncc12', 'HCT116 MTAP-deleted cell lines', 'CC50', '100 to 1000 nM'),
  ('CCN(Cc1ccc(C(F)(F)F)cc1F)C(=O)c1cc2c(cc1F)nc(N)c1cncn12', 'HCT116 MTAP-deleted cell lines', 'CC50', '< 100 nM'),
  ('Nc1nc2cc(F)c(C(=O)N3CCO[C@@H]4Cc5cc(C(F)(F)F)c(F)cc5[C@@H]43)cc2n2cncc12', 'HCT116 MTAP-deleted cell lines', 'CC50', '< 100 nM'),
  ('Cc1ncc2c(N)nc3cnc(C(=O)N4CCO[C@@H]5Cc6cc(OC(F)(F)F)c(F)cc6[C@@H]54)cc3n12', 'HCT116 MTAP-deleted cell lines', 'CC50', '< 100 nM');
